biological target: Gal4 DNA binding domain fused to the LBD of LXRα in HEK293 cells (Homo sapiens (Human)); test: LXR luciferase transcriptional reporter gene assay, agonist mode, LXRα; assay type: cell-based
Sequence (Q13133 209-447): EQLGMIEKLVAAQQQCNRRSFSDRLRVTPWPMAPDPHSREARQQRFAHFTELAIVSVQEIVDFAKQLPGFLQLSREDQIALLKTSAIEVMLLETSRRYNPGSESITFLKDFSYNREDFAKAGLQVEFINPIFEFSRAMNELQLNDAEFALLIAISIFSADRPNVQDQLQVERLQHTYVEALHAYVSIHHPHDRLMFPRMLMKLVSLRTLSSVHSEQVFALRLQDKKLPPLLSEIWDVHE
OBSERVABLE: Cell LXRα efficacy

Given the entry COc1cnc(N2CCN(c3ccc(F)c(S(C)(=O)=O)c3)C[C@H]2C(C)C)nc1C(F)(F)F [Cpd No 29-1] , report its measured Cell LXRα efficacy.
266 (104) %

Same lookup for CC(=O)c1cnc(N2CCN(c3ccc(F)c(S(C)(=O)=O)c3)C[C@H]2C(C)C)nc1C(F)(F)F [Cpd No 13-1] , please.
253 (63) %

Okay, and CS(=O)(=O)c1cc(N2CCN(Cc3ccc(C(F)(F)F)nc3)C(c3ccccc3)C2)ccc1F (stereo not shown) [46-52] ?
11699 (17) %

Same lookup for CC(C)[C@H]1CN(c2cccc(S(C)(=O)=O)c2)CCN1CC1CCC(C)(C)OC1 (stereo partly shown) [51-3] , please.
3460 (51) %

Now give it for CS(=O)(=O)c1cccc(N2CCN(CC3CCC(F)(F)CC3)[C@@H](c3ccccc3)C2)c1 [48-13] too.
2624 (20) %

Now consider Cc1cc(C#N)nc(N2CCN(c3ccc(F)c(S(C)(=O)=O)c3)C[C@H]2C(C)C)n1 [7-8] .
17317 (26) %

And what about the compound CCOC(=O)c1cnc(N2CCN(c3ccc(F)c(S(C)(=O)=O)c3)CC2CC(F)(F)F)nc1C (stereo not shown) [7-22] ?
1038 (43) %

Repeat for the following compound: CC(C)[C@@H]1CN(c2ccc(C(N)=O)c(S(C)(=O)=O)c2)CCN1c1nccc(C(F)(F)F)n1 [4-2]
1172 (71) %

Now the compound CC(C)[C@@H]1CN(c2cccc(S(C)(=O)=O)c2)CCN1C[C@H]1CC[C@@H](C(F)(F)F)CC1 (single isomer, unassigned) [48-9]
3201 (94) %

Next record, please: CC(C)[C@H]1CN(c2ccc(CO)c(S(C)(=O)=O)c2)CCN1C[C@H]1CC[C@@H](C(F)(F)F)OC1 [Cpd No 49-1]
195 (64) %

# repeat for CS(=O)(=O)c1cccc(N2CCN(Cc3ccc(C(F)(F)F)c(Cl)c3)[C@H](Cc3ccccc3)C2)c1 [46-33]
2354 (44) %

Now the compound CS(=O)(=O)c1cccc(N2CCN(c3nccc(C(F)(F)F)n3)[C@H](c3ccc(F)cc3)C2)c1 [8-1]
2160 (16) %

Now consider CC(C)[C@@H]1CN(c2ccc(F)c(S(C)(=O)=O)c2)CCN1c1nccc(C#N)n1 [7-7] and answer again.
1467 (69) %

Same question for CC1(C)CCC(CN2CCN(c3cccc(S(C)(=O)=O)c3)C[C@H]2c2ccccc2)CC1 [Cpd No 48-3] please.
4273 (20) %

Continue with CC(C)[C@@H]1CN(c2cccc(S(C)(=O)=O)c2)CCN1c1ccnc(C(F)(F)F)n1 [7-50]
2029 (50) %

For CC(C)[C@@H]1CN(c2ccc(-c3nc(C#N)cs3)c(S(C)(=O)=O)c2)CCN1c1ncc(CO)c(C(F)(F)F)n1 [Cpd No 11-12] then?
488 (67) %
